target: Tyrosine-protein kinase ITK/TSK (Homo sapiens); assay: Inhibition of human ITK expressed in chicken DT40 cells assessed as B cell receptor-stimulated calcium influx by FLIPR assay; assay type: cell-based
Sequence (Q08881 whole entry): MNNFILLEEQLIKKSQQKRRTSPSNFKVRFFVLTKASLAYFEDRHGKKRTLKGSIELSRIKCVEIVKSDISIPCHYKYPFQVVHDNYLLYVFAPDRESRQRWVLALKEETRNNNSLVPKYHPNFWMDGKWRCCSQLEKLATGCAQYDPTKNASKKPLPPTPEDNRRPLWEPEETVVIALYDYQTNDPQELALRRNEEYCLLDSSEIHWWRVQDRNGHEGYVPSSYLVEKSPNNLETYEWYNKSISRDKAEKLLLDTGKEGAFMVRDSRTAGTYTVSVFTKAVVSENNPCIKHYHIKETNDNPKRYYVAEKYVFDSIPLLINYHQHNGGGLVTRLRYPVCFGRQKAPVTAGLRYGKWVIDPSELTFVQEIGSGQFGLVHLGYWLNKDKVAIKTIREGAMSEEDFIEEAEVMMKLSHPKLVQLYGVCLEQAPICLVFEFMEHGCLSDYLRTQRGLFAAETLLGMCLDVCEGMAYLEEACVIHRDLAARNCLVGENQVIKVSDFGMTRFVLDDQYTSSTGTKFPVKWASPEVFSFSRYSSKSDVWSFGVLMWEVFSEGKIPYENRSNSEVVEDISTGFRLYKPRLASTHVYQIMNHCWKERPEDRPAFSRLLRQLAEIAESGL
measured endpoint: IC50 (nM)

smiles notation	meas value
CN(C(=O)C1CCCCC1)c1ccc2c(c1)nc(NC(=O)c1ccc(C#N)cc1)n2CCCn1ccnc1	510

----------
The following compounds are listed with their measured IC50 values.
target: Insulin receptor (Homo sapiens, UniProt P06213)
Sequence (P06213 28-758 limits assumed): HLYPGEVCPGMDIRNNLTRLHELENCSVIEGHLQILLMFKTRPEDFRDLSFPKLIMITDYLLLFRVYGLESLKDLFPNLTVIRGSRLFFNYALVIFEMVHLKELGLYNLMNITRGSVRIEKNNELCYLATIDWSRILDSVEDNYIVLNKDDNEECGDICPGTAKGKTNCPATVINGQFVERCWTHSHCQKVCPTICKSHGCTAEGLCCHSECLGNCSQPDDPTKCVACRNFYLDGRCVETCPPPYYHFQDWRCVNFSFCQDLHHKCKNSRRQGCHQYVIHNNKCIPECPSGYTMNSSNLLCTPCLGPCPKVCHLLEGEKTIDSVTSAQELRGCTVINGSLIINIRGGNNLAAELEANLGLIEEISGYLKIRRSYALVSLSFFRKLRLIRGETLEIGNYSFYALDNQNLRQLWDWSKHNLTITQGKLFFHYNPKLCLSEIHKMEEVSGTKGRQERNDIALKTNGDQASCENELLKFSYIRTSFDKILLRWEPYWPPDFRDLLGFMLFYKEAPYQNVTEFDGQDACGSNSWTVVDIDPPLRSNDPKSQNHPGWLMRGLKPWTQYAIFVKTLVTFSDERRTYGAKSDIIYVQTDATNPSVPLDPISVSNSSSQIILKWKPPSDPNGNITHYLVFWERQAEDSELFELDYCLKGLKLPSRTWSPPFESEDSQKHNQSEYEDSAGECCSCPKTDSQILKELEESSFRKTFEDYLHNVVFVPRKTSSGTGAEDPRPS
Sequence (P06213 763-1382 limits assumed): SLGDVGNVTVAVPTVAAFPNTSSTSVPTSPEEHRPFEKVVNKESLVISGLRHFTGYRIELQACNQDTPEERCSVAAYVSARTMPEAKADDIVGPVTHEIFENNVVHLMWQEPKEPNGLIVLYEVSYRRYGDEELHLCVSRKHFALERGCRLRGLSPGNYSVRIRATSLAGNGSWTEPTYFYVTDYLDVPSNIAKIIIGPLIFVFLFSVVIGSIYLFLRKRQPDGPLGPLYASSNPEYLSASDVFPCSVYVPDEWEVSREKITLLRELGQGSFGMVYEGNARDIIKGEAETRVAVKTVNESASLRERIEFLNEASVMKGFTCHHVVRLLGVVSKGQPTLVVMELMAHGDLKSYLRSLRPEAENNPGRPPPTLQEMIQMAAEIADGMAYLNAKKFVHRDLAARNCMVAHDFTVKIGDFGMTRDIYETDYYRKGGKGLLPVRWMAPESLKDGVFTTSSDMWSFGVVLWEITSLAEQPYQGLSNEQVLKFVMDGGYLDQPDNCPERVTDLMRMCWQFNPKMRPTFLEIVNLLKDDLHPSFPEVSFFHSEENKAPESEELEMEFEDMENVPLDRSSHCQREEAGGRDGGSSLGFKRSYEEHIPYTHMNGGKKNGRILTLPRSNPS
measured endpoint: IC50

smiles notation	measured endpoint	meas value
COc1cccc(C(=O)Nc2nc3cc(N(C)C(=O)C4CCCCC4)ccc3n2CCC(N)=O)c1	IC50	0.55 µM
Cc1ccc(C(=O)Nc2nc3cc(N(C)C(=O)C4CCCCC4)ccc3n2CCC(N)=O)cc1	IC50	> 10 µM
COc1ccc(C(=O)Nc2nc3cc(N(C)C(=O)C4CCCCC4)ccc3n2CCC(N)=O)cc1	IC50	> 10 µM
